Tested on: MKN-45
Experimental Details: Antiproliferative activity against human MKN45 cells after 72 hrs by methylene blue staining
Assay type: functional, cell-based
Assay Context: MKN-45, 72 h
Test Readout: IC50 (nM)
Provide only the numeric value, understood in nM.

• COc1ccc(C(=O)n2nnc3ccccc32)cc1 = 500
• O=C(c1ccc(O)cc1)n1nnc2ccccc21 = 385

Query block: Reported IC50, compound `O=C(c1ccccc1)n1nnc2ccccc21` : ____
Result block: 668

----------
The following compounds are listed with their measured pIC50 values.
Test system: MKN-45
Experimental Details: Antiproliferative activity against human MKN45 cells after 72 hrs by methylene blue staining
Assay type: functional, cell-based
Assay Context: MKN-45, 72 h
# reply with the number alone; pIC50 is -log10 of concentration in mol/L

Would you please look over these solved cases?
* COc1cc(C(=O)n2nnc3ccccc32)cc(OC)c1OC | 6.56
* COc1cc(OC)cc(C(=O)On2nnc3ccc(OC)cc32)c1 | 7.44
* COc1cc(OC)cc(C(=O)n2nnc3ccccc32)c1 | 6.38

Query block: Reported pIC50, compound `O=C(c1cc(O)c(O)c(O)c1)n1nnc2ccccc21` : ____
Result block: 6.48

Query block: Field entry: `COc1ccc2nnn(OC(=O)c3ccccc3)c2c1`
Result block: 6.69

Query block: Field entry: `COc1ccc2nnn(OC(=O)c3cc(OC)c(OC)c(OC)c3)c2c1`
Result block: 8.10

----------
System: NCI-H460
Experimental Details: Antiproliferative activity against human H460 cells after 72 hrs by methylene blue staining
Format: functional, cell-based
Assay Context: NCI-H460, 72 h
pIC50: −log10 of the molar value.
Label scheme for pIC50: lower than 7 is not satisfied, 7 and above is satisfied.

- O=C(On1nnc2ccccc21)c1cc(O)cc(O)c1: satisfied

Query block: Please tell me: is the compound `COc1cc(OC)cc(C(=O)On2nnc3ccccc32)c1` at or over 7 in terms of pIC50?
Result block: satisfied

Query block: Field entry: `COc1ccc2nnn(OC(=O)c3ccccc3)c2c1`
Result block: not satisfied

Query block: Field entry: `COc1cc(C(=O)On2nnc3ccccc32)cc(OC)c1OC`
Result block: satisfied

Query block: Field entry: `O=C(c1cc(O)cc(O)c1)n1nnc2ccccc21`
Result block: not satisfied

Query block: Field entry: `COc1cccc2c1C(=O)c1c(O)c3c(c(O)c1C2=O)C[C@@](O)(C(=O)CO)C[C@@H]3O[C@H]1C[C@H](N)[C@H](O)[C@H](C)O1`
Result block: satisfied

Query block: Field entry: `COc1ccc2nnn(OC(=O)c3cc(OC)c(OC)c(OC)c3)c2c1`
Result block: satisfied

Query block: Field entry: `COc1ccc2nnn(OC(=O)c3ccc(O)cc3)c2c1`
Result block: not satisfied

----------
Test system: MKN-45
Experimental Details: Antiproliferative activity against human MKN45 cells after 72 hrs by methylene blue staining
Assay type: functional, cell-based
Assay Context: MKN-45, 72 h
pIC50: −log10 of the molar value.
Label scheme for pIC50: lower than 7 is condition not met, 7 and above is condition met.

// below: answered compounds
- O=C(On1nnc2ccccc21)c1ccc(O)cc1: condition met
- COc1cc(OC)cc(C(=O)On2nnc3ccccc32)c1: condition met
- COc1ccc(C(=O)On2nnc3ccccc32)cc1: condition met

Query block: Please tell me: is the compound `O=C(On1nnc2ccccc21)c1cc(O)cc(O)c1` at or over 7 in terms of pIC50?
Result block: condition met

Query block: Field entry: `COc1ccc2nnn(OC(=O)c3ccc(O)cc3)c2c1`
Result block: condition not met

Query block: Field entry: `O=C(On1nnc2ccccc21)c1cc(O)c(O)c(O)c1`
Result block: condition met

Query block: Field entry: `COc1ccc2nnn(OC(=O)c3cc(O)c(O)c(O)c3)c2c1`
Result block: condition met

Query block: Field entry: `COc1cc(C(=O)On2nnc3ccccc32)cc(OC)c1OC`
Result block: condition met

Query block: Field entry: `O=C(c1cc(O)cc(O)c1)n1nnc2ccccc21`
Result block: condition not met

----------
Test system: KB
Experimental Details: Antiproliferative activity against human KB cells after 72 hrs by methylene blue staining
Format: functional, cell-based
Test Readout: pIC50
# reply with the number alone; pIC50 is -log10 of concentration in mol/L

- COc1cc(C(=O)n2nnc3ccccc32)cc(OC)c1OC: 6.54
- COc1ccc2nnn(OC(=O)c3cc(O)cc(O)c3)c2c1: 6.82

Query block: Reported pIC50, molecule COc1cccc2c1C(=O)c1c(O)c3c(c(O)c1C2=O)C[C@@](O)(C(=O)CO)C[C@@H]3O[C@H]1C[C@H](N)[C@H](O)[C@H](C)O1 [DOXORUBICIN] : ____
Result block: 9.64

Query block: Field entry: `O=C(On1nnc2ccccc21)c1ccccc1`
Result block: 6.98

Query block: Field entry: `O=C(c1cc(O)c(O)c(O)c1)n1nnc2ccccc21`
Result block: 6.41

Query block: Field entry: `COc1ccc2nnn(OC(=O)c3ccc(O)cc3)c2c1`
Result block: 6.83

Query block: Field entry: `O=C(c1ccccc1)n1nnc2ccccc21`
Result block: 6.18

----------
Target Entity: Histone deacetylase
Experimental Details: Inhibition of human HDAC after 30 mins
Format: protein assay
IC50 strictly less than 60 µM = 1.0. Otherwise 0.0.

// below: answered compounds
- COc1ccc2nnn(OC(=O)c3cc(OC)c(OC)c(OC)c3)c2c1: 1.0
- COc1cc(OC)cc(C(=O)On2nnc3ccc(OC)cc32)c1: 0.0
- COc1cc(C(=O)On2nnc3ccccc32)cc(OC)c1OC: 1.0
- O=C(On1nnc2ccccc21)c1cc(O)c(O)c(O)c1: 0.0

Now look at this one.
Query block: In the record for `COc1ccc(C(=O)On2nnc3ccccc32)cc1` , is IC50 less than 60 µM?
Result block: 0.0

----------
Tested on: NCI-H460
Experimental Details: Antiproliferative activity against human H460 cells after 72 hrs by methylene blue staining
Type: functional, cell-based
Assay Context: NCI-H460, 72 h
pIC50: −log10 of the molar value.
Label scheme for pIC50: lower than 7 is NOT MET, 7 and above is MET.

• COc1cc(C(=O)n2nnc3ccccc32)cc(OC)c1OC = NOT MET

Query block: Please tell me: is the compound `COc1ccc(C(=O)On2nnc3ccccc32)cc1` at or over 7 in terms of pIC50?
Result block: MET

Query block: Field entry: `COc1ccc(C(=O)n2nnc3ccccc32)cc1`
Result block: NOT MET

Query block: Field entry: `O=C(c1cc(O)c(O)c(O)c1)n1nnc2ccccc21`
Result block: NOT MET

Query block: Field entry: `O=C(On1nnc2ccccc21)c1cc(O)c(O)c(O)c1`
Result block: MET

Query block: Field entry: `O=C(c1ccccc1)n1nnc2ccccc21`
Result block: NOT MET

----------
Test system: MKN-45
Experimental Details: Antiproliferative activity against human MKN45 cells after 72 hrs by methylene blue staining
Format: functional, cell-based
Assay Context: MKN-45, 72 h
The following compounds are listed with their measured pIC50 values.
# reply with the number alone; pIC50 is -log10 of concentration in mol/L

Would you please look over these solved cases?
* COc1ccc2nnn(OC(=O)c3cc(O)cc(O)c3)c2c1 | 7.03
* COc1ccc(C(=O)On2nnc3ccc(OC)cc32)cc1 | 7.03

Below: the item to evaluate.
Query block: Reported pIC50, compound `O=C(On1nnc2ccccc21)c1ccccc1` : ____
Result block: 7.01

----------
Test system: KB
Experimental Details: Antiproliferative activity against human KB cells after 72 hrs by methylene blue staining
Format: functional, cell-based
Test Readout: pIC50
# reply with the number alone; pIC50 is -log10 of concentration in mol/L

Would you please look over these solved cases?
* COc1ccc2nnn(OC(=O)c3ccccc3)c2c1 | 6.68
* O=C(On1nnc2ccccc21)c1ccc(O)cc1 | 7.06
* O=C(c1cc(O)cc(O)c1)n1nnc2ccccc21 | 6.24

Query block: Reported pIC50, compound `COc1ccc2nnn(OC(=O)c3cc(O)c(O)c(O)c3)c2c1` : ____
Result block: 7.09

Query block: Field entry: `COc1ccc(C(=O)n2nnc3ccccc32)cc1`
Result block: 6.30

Query block: Field entry: `COc1ccc2nnn(OC(=O)c3cc(OC)c(OC)c(OC)c3)c2c1`
Result block: 7.96

Query block: Field entry: `O=C(On1nnc2ccccc21)c1cc(O)c(O)c(O)c1`
Result block: 7.74

Query block: Field entry: `COc1cc(C(=O)On2nnc3ccccc32)cc(OC)c1OC`
Result block: 8.92

----------
Test system: NCI-H460
Experimental Details: Antiproliferative activity against human H460 cells after 72 hrs by methylene blue staining
Format: functional, cell-based
Assay Context: NCI-H460, 72 h
The following compounds are listed with their measured pIC50 values.
# reply with the number alone; pIC50 is -log10 of concentration in mol/L

Would you please look over these solved cases?
• O=C(c1ccc(O)cc1)n1nnc2ccccc21 = 6.18
• COc1cc(OC)cc(C(=O)n2nnc3ccccc32)c1 = 6.31
• COc1cc(OC)cc(C(=O)On2nnc3ccc(OC)cc32)c1 = 7.10
• COc1ccc2nnn(OC(=O)c3cc(O)c(O)c(O)c3)c2c1 = 6.93

Query block: Reported pIC50, compound `O=C(On1nnc2ccccc21)c1ccccc1` : ____
Result block: 6.71

Query block: Field entry: `COc1ccc2nnn(OC(=O)c3cc(O)cc(O)c3)c2c1`
Result block: 6.71
